Ref: PubChem BioAssay (NCI)

Known TGI of a selection of molecules
Test system: SK-OV-3 ovarian
testName: NCI tumour cell line growth inhibition, 48 h
measuredProperty: TGI (µM)

>>> numericresult("C[As](C)SC1OC(CO)C(O)C1O (stereo not given)")
22.4
>>> numericresult("CC1=CC(/C=C(\\C)CCCc2ccoc2)C2(OC(=O)C(C)=C2O)[C@H]2C1CC[C@@H]2C (stereo not given in full)")
69

* * *

Test system: HCT-116 colon
testName: NCI tumour cell line growth inhibition, 48 h
measuredProperty: TGI (µM)

>>> numericresult("COc1ccc2nc3ccc(OC)cc3c(S(=O)CCCl)c2c1 (stereo unspecified)")
3.39
>>> numericresult("COC(=O)Cc1cc(O)c(C/C=C(\\C)CC/C=C(\\C)C(O)C(=O)C=C(C)C)cc1O (stereo unspecified)")
31.1
>>> numericresult("c1ccc2sc(C3(N4CCCC4)CCCCCC3)cc2c1")
27.7
